The measured values listed here are drawn from ChEMBL document CHEMBL4028802.

# Species: Homo sapiens
# assayOverview: Liver toxicity in human assessed as induction of drug-induced liver injury by measuring severity class index; also: key of the grades not given here
Starred links: 1 amine or outer side, 2 acyl side, 3 side chain; linkers in the order of their positions; H or OH if unused. Positions of bridges follow the written chain, without caps; N, C: chain ends. Non-standard residues stand in square brackets, D forms with d. Residues, ends and D or L forms follow the SMILES beside them. *: point of attachment. pTerphenylCO(4''-OnC5H11) = CCCCCOc1ccc(-c2ccc(-c3ccc(C(=O)*)cc3)cc2)cc1; Orn(4R-OH,5R-OH) = O=C([C@H](C[C@@H](O)[C@@H](O)N[*:3])N[*:1])[*:2]; hTyr(3S-OH,4S-OH) = N[C@H](C(=O)O)[C@H](O)[C@@H](O)c1ccc(O)cc1; Pro(3S-OH,4S-Me) = C[C@H]1CN[C@H](C(=O)O)[C@H]1O; Hyp = O=C(O)[C@@H]1C[C@@H](O)CN1
quantityName: DILI_severity_class
Field format: numeric only.

# compound, quantityName, measValue
records = [
    ("CCCCCOc1ccc(-c2ccc(-c3ccc(C(=O)N[C@H]4C[C@@H](O)[C@@H](O)NC(=O)[C@@H]5[C@@H](O)[C@@H](C)CN5C(=O)[C@H]([C@@H](C)O)NC(=O)[C@H]([C@H](O)[C@@H](O)c5ccc(O)cc5)NC(=O)[C@@H]5C[C@@H](O)CN5C(=O)[C@H]([C@@H](C)O)NC4=O)cc3)cc2)cc1 [ANIDULAFUNGIN] ({pTerphenylCO(4''-OnC5H11)}-[Orn(4R-OH,5R-OH)]T[Hyp][hTyr(3S-OH,4S-OH)]T[Pro(3S-OH,4S-Me)]; lactam 1-C)", "DILI_severity_class", 7),
    ("CN[C@@H](C)Cc1ccccc1", "DILI_severity_class", 0),
    ("CC(=O)OCC(=O)[C@@]1(O)CC[C@H]2[C@@H]3CCC4=CC(=O)CC[C@]4(C)[C@H]3C(=O)C[C@@]21C [CORTISONE ACETATE]", "DILI_severity_class", 0),
    ("CCCc1nn(C)c2c(=O)[nH]c(-c3cc(S(=O)(=O)N4CCN(C)CC4)ccc3OCC)nc12", "DILI_severity_class", 3),
    ("CC1(C)S[C@@H]2[C@H](NC(=O)[C@H](N)c3ccccc3)C(=O)N2[C@H]1C(=O)O", "DILI_severity_class", 3),
]

# input # query: DILI_severity_class of entry "CCc1oc2ccccc2c1C(=O)c1cc(I)c(O)c(I)c1"
# output 8

# input # query: DILI_severity_class of entry C=CC(N)CCC(=O)O (configuration not stated)
# output 2

# input # query: DILI_severity_class of entry COc1ccc(Cl)cc1C(=O)NCCc1ccc(S(=O)(=O)NC(=O)NC2CCCCC2)cc1 [GLYBURIDE]
# output 3

# input # query: DILI_severity_class of entry "CC(=O)N[C@@H]1[C@@H](O[C@@H]2O[C@@H](C(=O)O)[C@@H](O)[C@H](O)[C@H]2O)[C@@H](OS(=O)(=O)O)[C@@H](CO)O[C@H]1O"
# output 8

# input # query: DILI_severity_class of entry "O=C(O)CN(CCN(CC(=O)O)CC(=O)O)CCN(CC(=O)O)CC(=O)O"
# output 0

# input # query: DILI_severity_class of entry "Clc1ccccc1C(c1ccccc1)(c1ccccc1)n1ccnc1"
# output 3

# input # query: DILI_severity_class of entry "CC(C)(C#N)c1cc(Cn2cncn2)cc(C(C)(C)C#N)c1"
# output 3
